The following are reported IC50 results, target or system HhFPPS (Homo sapiens).

The compound O=P(O)(O)C(CNCCOc1ccc(Oc2ccccc2)cc1)P(=O)(O)O , tested on HhFPPS (Homo sapiens), showed IC50 of > 10 µM

====

test system: T. gondii (tachyzoites); experiment: T. gondii tachyzoites growth assay; assay type: cell-based, Toxoplasma gondii; conditions: read-out: T. gondii growth EC50; tachyzoites; means ± SD, n = 3; listed as 2-[3-(phenoxy)phenoxyethylthio]ethyl-1,1-bisphosphonate
Property name: EC50 (nM)
Express the result in nM but write the number alone.

EC50 recorded for this compound, O=P(O)(O)C(CSCCOc1cccc(Oc2ccccc2)c1)P(=O)(O)O [Compound 58] , is 700
